- target: D663S (Dictyostelium discoideum, UniProt P42527, D663S)
- Construct: gene mhkA; A-CAT: alpha-kinase domain and Thr825 autophosphorylation site of MHCK-A
- Sequence (P42527 552-841 D663S): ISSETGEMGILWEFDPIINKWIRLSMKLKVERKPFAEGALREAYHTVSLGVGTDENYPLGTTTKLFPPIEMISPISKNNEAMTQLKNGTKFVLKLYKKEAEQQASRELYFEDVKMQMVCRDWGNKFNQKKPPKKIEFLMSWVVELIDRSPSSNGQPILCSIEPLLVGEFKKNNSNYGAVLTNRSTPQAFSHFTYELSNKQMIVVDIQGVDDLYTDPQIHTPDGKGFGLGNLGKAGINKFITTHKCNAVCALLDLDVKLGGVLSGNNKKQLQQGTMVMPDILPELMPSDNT
- assay_notes: Nucleotide binding assay with fluorescent mant-ADP on purified A-CAT, carried out as previously described (ref 51); at least 3 separate experiments.
- study_conditions: read-out: mant-ADP Kd; SD, n = 3
quantity_name: Kd (µM)
Write the answer as a number in µM, unit excluded.

The compound CNc1ccccc1C(=O)O[C@H]1[C@@H](O)[C@H](n2cnc3c(N)ncnc32)O[C@@H]1COP(=O)(O)OP(=O)(O)O , when measured on D663S (Dictyostelium discoideum, UniProt P42527, D663S), yielded Kd of 12
